- study_target: recombinant human Lysyl Oxidase-Like 2 (LOXL2) (Homo sapiens, UniProt Q9Y4K0)
- Construct: purchased R&D systems
- Sequence (Q9Y4K0 26-774): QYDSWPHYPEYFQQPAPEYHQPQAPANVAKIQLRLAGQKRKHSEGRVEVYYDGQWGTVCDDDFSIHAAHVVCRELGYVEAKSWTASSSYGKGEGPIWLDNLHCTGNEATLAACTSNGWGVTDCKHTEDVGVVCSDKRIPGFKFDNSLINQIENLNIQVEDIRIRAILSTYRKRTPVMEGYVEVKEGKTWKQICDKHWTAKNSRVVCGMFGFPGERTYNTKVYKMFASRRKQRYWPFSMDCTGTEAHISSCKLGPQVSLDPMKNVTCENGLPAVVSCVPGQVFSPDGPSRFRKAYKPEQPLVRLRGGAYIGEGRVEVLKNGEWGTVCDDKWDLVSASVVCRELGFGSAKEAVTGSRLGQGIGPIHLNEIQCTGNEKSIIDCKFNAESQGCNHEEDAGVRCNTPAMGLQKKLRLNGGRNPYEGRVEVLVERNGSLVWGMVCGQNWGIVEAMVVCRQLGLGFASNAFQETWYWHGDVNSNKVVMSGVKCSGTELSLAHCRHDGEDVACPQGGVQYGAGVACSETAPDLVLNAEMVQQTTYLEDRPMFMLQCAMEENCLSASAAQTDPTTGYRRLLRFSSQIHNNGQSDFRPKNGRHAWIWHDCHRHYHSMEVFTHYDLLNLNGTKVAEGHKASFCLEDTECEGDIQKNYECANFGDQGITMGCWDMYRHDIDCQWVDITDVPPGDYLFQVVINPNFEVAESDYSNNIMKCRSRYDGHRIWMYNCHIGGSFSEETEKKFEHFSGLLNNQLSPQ
- method_description: Amplex Red HRP-coupled amine oxidase assay, recombinant human LOXL2
- Assay type: biochemical
- measurement_parameters: 60 min incubation with enzyme at 37° C., putrescine substrate, read-out: Inhibitory activity (IC50, nM) human LOXL2
Counter-ions that a name gives are not always drawn.
metric_name: IC50 (nM)

compound="N#Cc1cc(-c2ccn(CCO)n2)c2ncn(C/C(F)=C/CN)c2c1 [Example 195, hydrochloride]" study_target="recombinant human Lysyl Oxidase-Like 2 (LOXL2) (Homo sapiens, UniProt Q9Y4K0)" metric_name=IC50 measured=159

I. CCn1nccc1-c1cc(C(F)(F)F)cc2c1nnn2C/C(F)=C/CN [Example 203, hydrochloride]
II. CONC(=O)c1cc(-c2ccc(OC)c(S(=O)(=O)N(C)C)c2)c2nnn(C/C(F)=C/CN)c2c1 [Example 132, hydrochloride]
III. CS(=O)(=O)c1cccc(-c2cc(F)cc3c2ncn3C/C(F)=C/CN)c1 [Example 3, hydrochloride]
Query: Sort by IC50, descending. In plain terms: list the labels in the order you were asked to.
Response: I, III, II

I. CC(=O)c1ccc(F)c(-c2cc(C(F)(F)F)cc3c2nnn3C/C(F)=C/CN)c1 [Example 197, hydrochloride]
II. Cc1nc2c(-c3cccc(S(=O)(=O)N(C)C)c3)cccc2n1C/C(F)=C/CN [Example 56, hydrochloride]
Query: Between I and II , which one has the lower reported IC50 value? // output: label of the selected item
Response: II
(II: 74 nM, I: 308 nM)
